The reader will find reported one-hybrid fitness for binding NBS DNA values listed item by item below.
B1: Caulobacter ParB omega fusion; a variant is named by its letters at X, in order, B8GW30 (parent)
chain: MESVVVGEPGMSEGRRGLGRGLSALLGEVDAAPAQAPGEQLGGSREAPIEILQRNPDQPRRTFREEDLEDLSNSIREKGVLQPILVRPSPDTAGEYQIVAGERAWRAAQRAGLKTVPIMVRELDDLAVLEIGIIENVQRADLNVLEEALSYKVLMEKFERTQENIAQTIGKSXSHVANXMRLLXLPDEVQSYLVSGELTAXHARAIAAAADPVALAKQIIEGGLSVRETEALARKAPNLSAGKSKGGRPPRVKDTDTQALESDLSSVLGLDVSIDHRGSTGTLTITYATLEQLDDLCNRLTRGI

Variants of: B1
Test: one-hybrid fitness for binding NBS DNA (the Noc-binding site; scaled: cognate 1, non-cognate 0); higher = stronger binding
Settings: with NBS DNA site
In all, about 81,000 sequences were measured (“one-hybrid fitness for binding NBS DNA”: median about -0.1, highest 2% from about 0.36 on). This excerpt belongs to a sample that is enriched for the highest values.

>  <mutation-list>
QKGD

>  <modifier-sign>
≤

>  <one-hybrid fitness for binding NBS DNA>
0.2

$$$$
>  <mutation-list>
TQHV

>  <modifier-sign>
≤

>  <one-hybrid fitness for binding NBS DNA>
0.2

$$$$
>  <mutation-list>
QKDD

>  <modifier-sign>
≤

>  <one-hybrid fitness for binding NBS DNA>
0.2

$$$$
>  <mutation-list>
QVSD

>  <modifier-sign>
≤

>  <one-hybrid fitness for binding NBS DNA>
0.2

$$$$
>  <mutation-list>
GTSM

>  <modifier-sign>
≤

>  <one-hybrid fitness for binding NBS DNA>
0.2

$$$$
>  <mutation-list>
RYLH

>  <modifier-sign>
≤

>  <one-hybrid fitness for binding NBS DNA>
0.2

$$$$
>  <mutation-list>
NRPR

>  <modifier-sign>
≤

>  <one-hybrid fitness for binding NBS DNA>
0.2

$$$$
>  <mutation-list>
RPWR

>  <modifier-sign>
≤

>  <one-hybrid fitness for binding NBS DNA>
0.2

$$$$
>  <mutation-list>
QSNE

>  <modifier-sign>
≤

>  <one-hybrid fitness for binding NBS DNA>
0.2

$$$$
>  <mutation-list>
RTGP

>  <modifier-sign>
≤

>  <one-hybrid fitness for binding NBS DNA>
0.2

$$$$
>  <mutation-list>
QKRS

>  <modifier-sign>
=

>  <one-hybrid fitness for binding NBS DNA>
0.677

$$$$
>  <mutation-list>
FDKC

>  <modifier-sign>
≤

>  <one-hybrid fitness for binding NBS DNA>
0.2

$$$$
>  <mutation-list>
QKNH

>  <modifier-sign>
=

>  <one-hybrid fitness for binding NBS DNA>
0.286

$$$$
>  <mutation-list>
HAYM

>  <modifier-sign>
≤

>  <one-hybrid fitness for binding NBS DNA>
0.2

$$$$
>  <mutation-list>
RSWR

>  <modifier-sign>
=

>  <one-hybrid fitness for binding NBS DNA>
0.27

$$$$
>  <mutation-list>
KTAW

>  <modifier-sign>
≤

>  <one-hybrid fitness for binding NBS DNA>
0.2

$$$$
>  <mutation-list>
RYPT

>  <modifier-sign>
≤

>  <one-hybrid fitness for binding NBS DNA>
0.2

$$$$
>  <mutation-list>
DQIS

>  <modifier-sign>
≤

>  <one-hybrid fitness for binding NBS DNA>
0.2

$$$$
>  <mutation-list>
RTPR

>  <modifier-sign>
=

>  <one-hybrid fitness for binding NBS DNA>
0.208

$$$$
>  <mutation-list>
RYDT

>  <modifier-sign>
=

>  <one-hybrid fitness for binding NBS DNA>
0.204

$$$$
>  <mutation-list>
RYNP

>  <modifier-sign>
≤

>  <one-hybrid fitness for binding NBS DNA>
0.2

$$$$
>  <mutation-list>
RYVT

>  <modifier-sign>
=

>  <one-hybrid fitness for binding NBS DNA>
0.229

$$$$
>  <mutation-list>
QKGH

>  <modifier-sign>
=

>  <one-hybrid fitness for binding NBS DNA>
0.228

$$$$
>  <mutation-list>
QKRP

>  <modifier-sign>
=

>  <one-hybrid fitness for binding NBS DNA>
0.261

$$$$
>  <mutation-list>
STTV

>  <modifier-sign>
≤

>  <one-hybrid fitness for binding NBS DNA>
0.2

$$$$
>  <mutation-list>
RYWT

>  <modifier-sign>
=

>  <one-hybrid fitness for binding NBS DNA>
0.281

$$$$
>  <mutation-list>
RTIR

>  <modifier-sign>
=

>  <one-hybrid fitness for binding NBS DNA>
0.354

$$$$
>  <mutation-list>
RYLD

>  <modifier-sign>
≤

>  <one-hybrid fitness for binding NBS DNA>
0.2

$$$$
>  <mutation-list>
RYCP

>  <modifier-sign>
≤

>  <one-hybrid fitness for binding NBS DNA>
0.2

$$$$
>  <mutation-list>
QMVE

>  <modifier-sign>
≤

>  <one-hybrid fitness for binding NBS DNA>
0.2

$$$$
>  <mutation-list>
RTER

>  <modifier-sign>
=

>  <one-hybrid fitness for binding NBS DNA>
0.262

$$$$
>  <mutation-list>
RCWR

>  <modifier-sign>
=

>  <one-hybrid fitness for binding NBS DNA>
0.405

$$$$
>  <mutation-list>
RYCS

>  <modifier-sign>
=

>  <one-hybrid fitness for binding NBS DNA>
0.395

$$$$
>  <mutation-list>
RTRR

>  <modifier-sign>
=

>  <one-hybrid fitness for binding NBS DNA>
0.818

$$$$
>  <mutation-list>
RYDS

>  <modifier-sign>
≤

>  <one-hybrid fitness for binding NBS DNA>
0.2

$$$$
>  <mutation-list>
QVFR

>  <modifier-sign>
=

>  <one-hybrid fitness for binding NBS DNA>
0.302

$$$$
>  <mutation-list>
RYWS

>  <modifier-sign>
≤

>  <one-hybrid fitness for binding NBS DNA>
0.2

$$$$
>  <mutation-list>
QVGR

>  <modifier-sign>
=

>  <one-hybrid fitness for binding NBS DNA>
0.426

$$$$
>  <mutation-list>
RYRT

>  <modifier-sign>
=

>  <one-hybrid fitness for binding NBS DNA>
0.664

$$$$
>  <mutation-list>
MTRH

>  <modifier-sign>
≤

>  <one-hybrid fitness for binding NBS DNA>
0.2

$$$$
>  <mutation-list>
EQAR

>  <modifier-sign>
≤

>  <one-hybrid fitness for binding NBS DNA>
0.2

$$$$
>  <mutation-list>
KRMH

>  <modifier-sign>
≤

>  <one-hybrid fitness for binding NBS DNA>
0.2

$$$$
